The reported measurements were obtained from paper PMC12416549.

# target.desc: T1, TNFR1 (Homo sapiens, UniProt P19438)
# T1 chain: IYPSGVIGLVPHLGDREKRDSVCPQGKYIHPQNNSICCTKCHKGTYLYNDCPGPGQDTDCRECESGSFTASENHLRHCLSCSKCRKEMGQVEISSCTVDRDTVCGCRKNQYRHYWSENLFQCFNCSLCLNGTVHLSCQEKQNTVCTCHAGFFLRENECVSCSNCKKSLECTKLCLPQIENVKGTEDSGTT
# assay.name: yeast display SC50
Listed next: entries and their corresponding apparent Kd (screen).

binder: E58S (designed binder) MTLQELLREEALRRAEAEAFRYALELLAEKFPEQKEYLLDLAEEIESQIRSLSGVDVSDVRKFLDKEWAWVKELLAEHPAELAEVEAARAARLAELRAEVEAKVAA
apparent Kd (screen), nM: 0.593

binder: A90W (designed binder) MTLQELLREEALRRAEAEAFRYALELLAEKFPEQKEYLLDLAEEIESQIRSLSGVDVEDVRKFLDKEWAWVKELLAEHPAELAEVEAARWARLAELRAEVEAKVAA
apparent Kd (screen), nM: 0.539

binder: A94Q (designed binder) MTLQELLREEALRRAEAEAFRYALELLAEKFPEQKEYLLDLAEEIESQIRSLSGVDVEDVRKFLDKEWAWVKELLAEHPAELAEVEAARAARLQELRAEVEAKVAA
apparent Kd (screen), nM: 0.79

binder: E46H (designed binder) MTLQELLREEALRRAEAEAFRYALELLAEKFPEQKEYLLDLAEEIHSQIRSLSGVDVEDVRKFLDKEWAWVKELLAEHPAELAEVEAARAARLAELRAEVEAKVAA
apparent Kd (screen), nM: 0.539

binder: V55I (designed binder) MTLQELLREEALRRAEAEAFRYALELLAEKFPEQKEYLLDLAEEIESQIRSLSGIDVEDVRKFLDKEWAWVKELLAEHPAELAEVEAARAARLAELRAEVEAKVAA
apparent Kd (screen), nM: 0.539

binder: F20A (designed binder) MTLQELLREEALRRAEAEAARYALELLAEKFPEQKEYLLDLAEEIESQIRSLSGVDVEDVRKFLDKEWAWVKELLAEHPAELAEVEAARAARLAELRAEVEAKVAA
apparent Kd (screen), nM: 2.05

binder: E67R (designed binder) MTLQELLREEALRRAEAEAFRYALELLAEKFPEQKEYLLDLAEEIESQIRSLSGVDVEDVRKFLDKRWAWVKELLAEHPAELAEVEAARAARLAELRAEVEAKVAA
apparent Kd (screen), nM: 8.56

binder: L6A (designed binder) MTLQEALREEALRRAEAEAFRYALELLAEKFPEQKEYLLDLAEEIESQIRSLSGVDVEDVRKFLDKEWAWVKELLAEHPAELAEVEAARAARLAELRAEVEAKVAA
apparent Kd (screen), nM: 1.54
